# Tested on: Staphylococcus aureus
# method_summary: Antibacterial activity against erythromycin-resistant Staphylococcus aureus 5676 by broth microdilution method
# Format: functional
Measured MIC of individual entries

A selection of reference data follows.
Kindly note: Staphylococcus aureus, CC[C@H]1OC(=O)[C@H](C)C(=O)[C@H](C)[C@@H](O[C@@H]2O[C@H](C)C[C@H](N(C)C)[C@H]2O)[C@](C)(OC)C[C@@H](C)C(=O)[C@H](C)[C@@H](O)C12C=NNC2C (stereo partly specified) , MIC value reported: 8 µg/mL

Kindly note: Staphylococcus aureus, CCOC(=O)C1NN=CC12[C@H](O)[C@@H](C)C(=O)[C@H](C)C[C@@](C)(OC)[C@H](O[C@@H]1O[C@H](C)C[C@H](N(C)C)[C@H]1O)[C@@H](C)C(=O)[C@@H](C)C(=O)O[C@@H]2CC (stereo partly specified) , MIC value reported: 8 µg/mL

Kindly note: Staphylococcus aureus, CC[C@H]1OC(=O)[C@H](C)C(=O)[C@H](C)[C@@H](O[C@@H]2O[C@H](C)C[C@H](N(C)C)[C@H]2O)[C@](C)(OC)C[C@@H](C)C(=O)[C@H](C)[C@@H](O)C12C=NNC2C(=O)OC (stereo partly specified) , MIC value reported: 4 µg/mL

Kindly note: Staphylococcus aureus, CC[C@H]1OC(=O)[C@H](C)[C@@H](O[C@H]2C[C@@](C)(OC)[C@@H](O)[C@H](C)O2)[C@H](C)[C@@H](O[C@@H]2O[C@H](C)C[C@H](N(C)C)[C@H]2O)[C@](C)(O)C[C@@H](C)C(=O)[C@H](C)[C@@H](O)[C@]1(C)O , MIC value reported: > 1020 µg/mL

Kindly note: Staphylococcus aureus, CC[C@H]1OC(=O)[C@H](C)C(=O)[C@H](C)[C@@H](O[C@@H]2O[C@H](C)C[C@H](N(C)C)[C@H]2O)[C@@](C)(OC)C[C@@H](C)C(=O)[C@H](C)[C@@H](O)C12C=NNC2 (stereo partly specified) , MIC value reported: 4 µg/mL

More entries:
Kindly note: Staphylococcus aureus, CC[C@H]1OC(=O)[C@H](C)[C@@H](O[C@H]2C[C@@](C)(OC)[C@@H](O)[C@H](C)O2)[C@H](C)[C@@H](O[C@@H]2O[C@H](C)C[C@H](N(C)C)[C@H]2O)[C@](C)(OC)C[C@@H](C)C(=O)[C@H](C)[C@@H](O)[C@]1(C)O , MIC value reported: > 1020 µg/mL
